# Tgt: Caspase-3 (Homo sapiens, UniProt P42574)
# Sequence (P42574 whole entry): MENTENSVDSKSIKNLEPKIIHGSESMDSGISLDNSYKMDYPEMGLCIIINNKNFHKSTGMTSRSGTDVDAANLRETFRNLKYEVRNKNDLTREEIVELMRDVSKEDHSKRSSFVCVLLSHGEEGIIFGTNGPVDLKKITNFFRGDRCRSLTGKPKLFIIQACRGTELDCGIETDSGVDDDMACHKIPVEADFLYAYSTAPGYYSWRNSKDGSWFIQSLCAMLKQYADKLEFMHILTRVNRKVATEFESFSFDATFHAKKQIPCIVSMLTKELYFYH
pIC50: −log10 of the molar value.
Experimental Endpoint: pIC50

Challenge: Please indicate pIC50 recorded for COc1ccccc1C(=O)N1CCCN(CC(=O)N[C@H]2CC(=O)OC2O)C(=O)[C@@H](NC(=O)c2ccc3ccccc3c2)C1 (some centres not stated)
Response given: < 5.00

Continuing:
Challenge: Please indicate pIC50 recorded for O=C(CN1CCCN(C(=O)c2ccccc2)C[C@H](NC(=O)c2nccc3ccccc23)C1=O)N[C@H]1CC(=O)OC1O (some centres not stated)
Response given: < 5.00

* * *

# System: THP-1
# Test Summary: Inhibition of 1 ug/mL LPS-induced IL1-beta production in human monocytic cells after 4 hrs
# Format: functional, cell-based
# Details: THP-1, 4 h
Experimental Endpoint: IC50 (nM)

Example results:
Challenge: Please indicate IC50 recorded for O=C(CN1CCCN(C(=O)c2ccccc2C(F)(F)F)C[C@H](NC(=O)c2ccc3ccccc3c2)C1=O)N[C@H]1CC(=O)OC1O (some centres undefined)
Response given: 1520

Challenge: Please indicate IC50 recorded for CCO[C@@H]1OC(=O)C[C@@H]1NC(=O)[C@@H]1CCCN2C(=O)CC[C@H](NC(=O)c3nccc4ccccc34)C(=O)N12
Response given: 120

A = COc1cccc(C(=O)N2CCCN(CC(=O)N[C@H]3CC(=O)OC3O)C(=O)[C@@H](NC(=O)c3ccc4ccccc4c3)C2)c1 (some centres undefined)
B = O=C(CN1CCCN(C(=O)c2ccccc2)C[C@H](NC(=O)c2ccccc2)C1=O)N[C@H]1CC(=O)OC1O (some centres undefined)
Challenge: Hi, I'm comparing A with B and wondering which one has the bigger number for IC50. Any idea? Reply briefly: the label of your chosen item.
Response given: B
(B: 1020 nM, A: 229 nM)

* * *

# Test system: THP-1
# Test Summary: Inhibition of 1 ug/mL LPS-induced IL1-beta production in human monocytic cells after 4 hrs
# Type: functional, cell-based
# Details: THP-1, 4 h
pIC50: −log10 of the molar value.
Experimental Endpoint: pIC50

Example results:
Challenge: Please indicate pIC50 recorded for O=C(CN1CCCN(C(=O)N2CCOCC2)C[C@H](NC(=O)c2ccc3ccccc3c2)C1=O)N[C@H]1CC(=O)OC1O (stereo partly drawn)
Response given: 6.65

Challenge: Please indicate pIC50 recorded for O=C(CN1CCCN(C(=O)N2CCNCC2)C[C@H](NC(=O)c2ccc3ccccc3c2)C1=O)N[C@H]1CC(=O)OC1O (stereo partly drawn)
Response given: 6.55

Challenge: Please indicate pIC50 recorded for O=C(CN1CCCN(C(=O)c2cccc(F)c2)C[C@H](NC(=O)c2ccc3ccccc3c2)C1=O)N[C@H]1CC(=O)OC1O (stereo partly drawn)
Response given: 6.53

I = O=C(CN1CCCN(C(=O)c2ccccc2)C[C@H](NC(=O)c2nccc3ccccc23)C1=O)N[C@H]1CC(=O)OC1O (stereo partly drawn)
II = O=C(CN1CCCN(C(=O)c2cccc(C(F)(F)F)c2)C[C@H](NC(=O)c2ccc3ccccc3c2)C1=O)N[C@H]1CC(=O)OC1O (stereo partly drawn)
III = O=C(CN1CCCN(C(=O)c2ccccc2)C[C@H](NC(=O)c2cc3ccccc3s2)C1=O)N[C@H]1CC(=O)OC1O (stereo partly drawn)
IV = O=C(CN1CCCN(C(=O)c2ccccc2)C[C@H](NC(=O)c2cccc(C(F)(F)F)c2)C1=O)N[C@H]1CC(=O)OC1O (stereo partly drawn)
Challenge: Arrange the 4 entries by pIC50 so the values rise. To answer, arrange all of the labels according to the requested order.
Response given: II, IV, III, I
